- target: CypA (Homo sapiens (Human), UniProt P62937)
- Sequence (P62937 whole entry): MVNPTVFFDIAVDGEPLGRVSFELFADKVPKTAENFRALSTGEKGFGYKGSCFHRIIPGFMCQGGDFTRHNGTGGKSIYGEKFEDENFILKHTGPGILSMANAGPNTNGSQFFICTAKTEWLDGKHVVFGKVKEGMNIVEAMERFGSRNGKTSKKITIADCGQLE
- test-method-notes: X-ray co-crystal structure with CypA; also: key: Y: observed in cocrystal; N: not observed in cocrystal
- Assay type: binding
- test-parameters: apo CypA crystals soaked with 5 mM ligand
Where a name gives a salt, the structure may show the parent alone.
property: CypA X-ray co-crystal

# example entries with known answers
# compound, CypA X-ray co-crystal
records = [
    ("C#CCN(Cc1ccc(N)cc1)C(=O)NCC(=O)OCC [Compound 22]", "Y"),
    ("CCOC(=O)CNC(=O)N(CC)Cc1ccc2c(c1)[C@H]1CC(N2)[C@H](O)CO1 (stereo in doubt) [Compound 23, hydrochloride]", "N"),
    ("CCOC(=O)CNC(=O)N(CC)Cc1ccc(N)cc1.Cl [Compound 12]", "Y"),
    ("CCOC(=O)CNC(=O)N(Cc1ccc(N)cc1)Cc1cn(C)nn1.Cl [Compound 18]", "Y"),
    ("CCOC(=O)CNC(=O)N(Cc1ccc(N)cc1)Cc1nnn[nH]1.Cl [Compound 14]", "N"),
]

# CypA X-ray co-crystal (compound: Cl.Cn1cc(CN(Cc2ccc(N)cc2)C(=O)NCC(=O)N2CCCC2c2ccccc2Cl)nn1 (centres unmarked) [Compound 8] ) is N

# CypA X-ray co-crystal (compound: CCOC(=O)CNC(=O)N(CC#N)Cc1ccc(N)cc1.Cl [Compound 13] ) is Y

# CypA X-ray co-crystal (compound: CCN(Cc1ccc(N)cc1)C(=O)NCC(=O)N1CCCC1c1ccccc1Br.Cl (centres unmarked) [Compound 10] ) is N
